experiment: Metabolic stability of the compound in rat liver microsomes assessed as half life at 10 uM incubated for 10 mins in presence of NADPH by UPLC-MS analysis; format: ADME, Microsome
Give measured t1/2 for each item. Keep answers brief.
// return numeric value only (unit: h, not printed)

Given the entry Oc1c(CN2CCCC2)cc(Cn2ncc(-c3ccc(Br)cc3)n2)c2cccnc12 , report its measured t1/2.
1

Given the entry Oc1c(CN2CCCCC2)cc(Cn2ncc(-c3ccc(C(F)(F)F)cc3)n2)c2cccnc12 , report its measured t1/2.
1.6

Given the entry Oc1c(CN2CCCCC2)cc(Cn2ncc(-c3ccc(Br)cc3)n2)c2cccnc12 , report its measured t1/2.
1.3

Given the entry CC(C)c1ccc(COCc2cc(-c3cncc4ccccc34)c(O)c3ncccc23)cc1 , report its measured t1/2.
0.6

Given the entry Oc1c(CN2CCCC2)cc(Cn2ncc(-c3cccc(Br)c3)n2)c2cccnc12 , report its measured t1/2.
0.9

Given the entry CC(C)c1ccc(COCc2cc(-c3ccccc3)c(O)c3ncccc23)cc1 , report its measured t1/2.
2.5
